target: AHR (Homo sapiens, UniProt P35869); construct: U87 MG glioblastoma cells (ATCC #HTB-14) endogenously expressing AHR; endogenous in cells; host or cells: U87 MG glioblastoma cells (ATCC #HTB-14); assay: In vitro assay 1: antagonism in human cell line (AHR transactivation, firefly luciferase reporter, kynurenic acid prestimulated); assay type: cell-based; conditions: AHR Antagonism Human IC50 [M]
Sequence (P35869 11-848): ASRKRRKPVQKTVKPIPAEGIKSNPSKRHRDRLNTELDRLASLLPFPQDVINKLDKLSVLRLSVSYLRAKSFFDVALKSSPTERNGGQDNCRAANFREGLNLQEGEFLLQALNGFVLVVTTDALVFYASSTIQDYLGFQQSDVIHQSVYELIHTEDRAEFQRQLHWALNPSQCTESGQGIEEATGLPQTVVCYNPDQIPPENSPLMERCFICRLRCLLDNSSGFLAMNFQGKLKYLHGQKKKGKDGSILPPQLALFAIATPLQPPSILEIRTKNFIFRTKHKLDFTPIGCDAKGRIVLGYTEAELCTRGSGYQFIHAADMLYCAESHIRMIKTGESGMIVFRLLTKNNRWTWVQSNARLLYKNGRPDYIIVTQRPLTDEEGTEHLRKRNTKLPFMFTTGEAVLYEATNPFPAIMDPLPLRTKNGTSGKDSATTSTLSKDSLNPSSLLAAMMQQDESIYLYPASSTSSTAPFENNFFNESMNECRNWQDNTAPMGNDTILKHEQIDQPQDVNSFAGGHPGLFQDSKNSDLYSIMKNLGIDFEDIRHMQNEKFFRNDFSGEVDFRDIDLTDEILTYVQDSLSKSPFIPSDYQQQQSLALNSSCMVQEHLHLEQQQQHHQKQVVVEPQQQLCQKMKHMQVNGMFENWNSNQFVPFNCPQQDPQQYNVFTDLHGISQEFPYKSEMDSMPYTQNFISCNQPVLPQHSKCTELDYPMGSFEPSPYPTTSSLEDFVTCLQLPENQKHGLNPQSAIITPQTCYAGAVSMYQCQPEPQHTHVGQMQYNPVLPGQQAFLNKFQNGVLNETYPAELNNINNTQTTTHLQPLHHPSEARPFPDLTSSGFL
measuredProperty: log10 IC50 (log10 of the value in M)

[
  {
    "molecule": "CCCCNC(=O)[C@H](C)Nc1nc2c(Br)cccc2c2nc(-c3ccc(Cl)cc3OC(F)F)nn12",
    "log10 IC50": -6.68
  },
  {
    "molecule": "CCC[C@@H](Nc1nc2ccccc2c2nc(-c3cccc(OC(F)(F)F)c3)nn12)C(=O)NC",
    "log10 IC50": -7.68
  },
  {
    "molecule": "Cc1cccc2c1nc(N[C@@H]1CNCCNC1=O)n1nc(-c3cnn(C)c3)nc21",
    "log10 IC50": -6.15
  },
  {
    "molecule": "Cn1ccc(-c2nc3c4ccccc4nc(N[C@@H]4CNCCNC4=O)n3n2)n1",
    "log10 IC50": -5.20
  },
  {
    "molecule": "Cn1cc(-c2nc3c4cccc(C5(C(F)(F)F)CC5)c4nc(N[C@@H]4CNCCNC4=O)n3n2)cn1",
    "log10 IC50": -6.49
  },
  {
    "molecule": "Cn1cc(-c2nc3c4ccccc4nc(NC4CCNC4=O)n3n2)cn1 (single isomer, unassigned) [Example 18]",
    "log10 IC50": -5.95
  },
  {
    "molecule": "COc1ccc(-c2nc3c4cccc(SC(C)C)c4nc(N[C@@H]4CCCCNC4=O)n3n2)cc1",
    "log10 IC50": -7.57
  },
  {
    "molecule": "Cc1cc(-c2nc3c4ccccc4nc(N[C@@H]4CCCCNC4=O)n3n2)c(C)n1C",
    "log10 IC50": -8.04
  },
  {
    "molecule": "COc1ccc(-c2nc3c4cccc(C(C)C)c4nc(N[C@@H]4CCCCNC4=O)n3n2)cc1",
    "log10 IC50": -8.11
  },
  {
    "molecule": "COc1cccc(-c2nc3c4cccc(C)c4nc(N[C@H]4CCCCNC4=O)n3n2)c1",
    "log10 IC50": -7.55
  },
  {
    "molecule": "COc1cccc(-c2nc3c4ccccc4nc(NC4CCN(C)C4=O)n3n2)c1 (stereo not shown) [Example 80]",
    "log10 IC50": -7.60
  },
  {
    "molecule": "Cc1cccc2c1nc(N[C@@H]1CCCCNC1=O)n1nc(-c3cnn(C)c3)nc21",
    "log10 IC50": -8.67
  },
  {
    "molecule": "CC[C@@H](Nc1nc2ccccc2c2nc(-c3ccsc3)nn12)C(N)=O",
    "log10 IC50": -8.45
  },
  {
    "molecule": "COc1ccc(-c2nc3c4c(C)cccc4nc(N[C@@H]4CCCCNC4=O)n3n2)cc1",
    "log10 IC50": -8.40
  },
  {
    "molecule": "CCn1cc(-c2nc3c4ccccc4nc(N[C@@H]4CCCCNC4=O)n3n2)cn1",
    "log10 IC50": -8.19
  }
]

The values you see were collected from patent US20230113037A1.
